# assayed-system: GMPPNP-loaded KRAS G12C (Homo sapiens, UniProt P01116, G12C)
# Sequence (P01116 1-188 isoform P01116-2 G12C): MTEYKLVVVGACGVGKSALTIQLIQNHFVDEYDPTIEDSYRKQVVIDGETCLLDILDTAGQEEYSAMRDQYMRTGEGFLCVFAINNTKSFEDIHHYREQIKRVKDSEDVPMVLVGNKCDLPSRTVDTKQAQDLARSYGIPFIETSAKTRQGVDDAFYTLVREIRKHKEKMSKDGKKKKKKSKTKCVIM
# procedure-text: KRAS G12C RAF Disruption Assay (HTRF)
# experimental-parameters: recombinant GMPPNP-loaded KRAS G12C (5 nM), 20 min with compound; GST-RAF1 RBD (9 nM); HTRF signal; read-out: KRASG12C RAF Disruption Assay (IC50)
Please respond with reported pIC50 for every item in the list.
The scale used: pIC50 is minus the common logarithm of the concentration in molar units.

Need pIC50, item N#CC[C@H]1CN(c2nc(OC[C@@]34CCCN3C[C@H](F)C4)nc3c(F)c(N4CCOc5cccc(F)c54)ncc23)CCN1C(=O)/C(F)=C/c1nccs1 [Example 61]
6.52

Need pIC50, item C#Cc1c(F)ccc2cc(O)cc(-c3ncc4c(N5C[C@H]6CC[C@@H](C5)N6C(=O)/C(F)=C/c5cccnn5)nc(OC[C@@]56CCCN5C[C@H](F)C6)nc4c3F)c12 [Compound 12]
7.96

Need pIC50, item C#Cc1cccc2cccc(-c3ncc4c(N(C)C5CCN(C(=O)/C(F)=C/c6ccccn6)CC5)nc(OC[C@@]56CCCN5C[C@H](F)C6)nc4c3F)c12 [Compound 131]
5.38

Need pIC50, item C#Cc1c(F)ccc2cc(O)cc(-c3ncc4c(N5CCN(C(=O)/C(F)=C/c6ncccn6)CC5)nc(OC[C@@]56CCCN5C[C@H](F)C6)nc4c3F)c12 [Example 57]
8.40

Need pIC50, item C#Cc1c(F)ccc2cc(O)cc(-c3ncc4c(N5C[C@H]6CC[C@@H](C5)N6C(=O)/C(F)=C/c5cnccn5)nc(OC[C@@]56CCCN5C[C@H](F)C6)nc4c3F)c12 [Compound 16]
6.74

Need pIC50, item C#Cc1cccc2cccc(-c3ncc4c(N5CCCN(C(=O)/C(F)=C/c6ccccn6)CC5)nc(OC[C@@]56CCCN5C[C@H](F)C6)nc4c3F)c12 [Example 77]
6.92

Need pIC50, item CN(c1nc(OC[C@@]23CCCN2C[C@H](F)C3)nc2c(F)c(-c3cccc4cccc(C#N)c34)ncc12)[C@@H]1CCN(C(=O)/C(F)=C/c2ccccn2)C1 [Compound 113]
6.81

Need pIC50, item N#CC[C@H]1CN(c2nc(OC[C@@]34CCCN3C[C@H](F)C4)nc3c(F)c(-c4cc(Cl)ccc4C(F)(F)F)ncc23)CCN1C(=O)/C(F)=C/c1nccs1 [Example 46]
6.41
